- System: Saccharomyces cerevisiae
- measurement_description: protein stability index of tFT-peptide fusion (C-terminal peptide) (PSI (0-1 scale)); higher = more stable (slower turnover)
- condition_context: genetic background: wild type; temperature: 30 C
Recorded protein stability index for the following sequences

- sequence_chain: "RTSRPVRLFRIH"
  measured_target: "Saccharomyces cerevisiae"
  protein stability index: 0.279
- sequence_chain: "GTSDLIALLMLT"
  measured_target: "Saccharomyces cerevisiae"
  protein stability index: 0.403
- sequence_chain: "SHPFIRSLVFLA"
  measured_target: "Saccharomyces cerevisiae"
  protein stability index: 0.0711
- sequence_chain: "WLFTSVTVFTFL"
  measured_target: "Saccharomyces cerevisiae"
  protein stability index: 0.196
- sequence_chain: "FSYFFIFFYMVC"
  measured_target: "Saccharomyces cerevisiae"
  protein stability index: 0.147
- sequence_chain: "CLISILLFLCFT"
  measured_target: "Saccharomyces cerevisiae"
  protein stability index: 0.39

###

- Tested on: Saccharomyces cerevisiae
- measurement_description: protein stability index of tFT-peptide fusion (C-terminal peptide) (PSI (0-1 scale)); higher = more stable (slower turnover)
- condition_context: genetic background: wild type; temperature: 30 C

- sequence_chain: "ARRAVPGRGCEV"
  protein stability index: 0.683
- sequence_chain: "DWWFGQVYLSKE"
  protein stability index: 0.705
- sequence_chain: "VGGGWGGGVVLV"
  protein stability index: 0.696
- sequence_chain: "PLPALPPPPRGP"
  protein stability index: 0.636
- sequence_chain: "APPRPHTPLPRP"
  protein stability index: 0.75
- sequence_chain: "VVVRARVFFHIF"
  protein stability index: 0.0561
- sequence_chain: "QLEGQGISFRVL"
  protein stability index: 0.785
- sequence_chain: "NFLVNGRASLKV"
  protein stability index: 0.583
- sequence_chain: "EGRRGVGGAWEG"
  protein stability index: 0.657
- sequence_chain: "LVKVGCVGLIKC"
  protein stability index: 0.545
- sequence_chain: "VACFLCTPKWFE"
  protein stability index: 0.69
- sequence_chain: "GLGGRVWSDMGG"
  protein stability index: 0.745
- sequence_chain: "LTPMDVPDPLPH"
  protein stability index: 0.757
- sequence_chain: "DHSWPSTDRVLL"
  protein stability index: 0.676
- sequence_chain: "FDVAPTSRVNFL"
  protein stability index: 0.724
- sequence_chain: "PLSPPPPSHIPP"
  protein stability index: 0.653
- sequence_chain: "RVLRKIWEWKKG"
  protein stability index: 0.685
- sequence_chain: "RVLRREKPVVHC"
  protein stability index: 0.603
- sequence_chain: "EDTMGKTASHTR"
  protein stability index: 0.699
- sequence_chain: "FIVVSFCFFLFF"
  protein stability index: 0.343
- sequence_chain: "RRGYEVSSLSDD"
  protein stability index: 0.672
- sequence_chain: "VIASPALLLPLF"
  protein stability index: 0.642
- sequence_chain: "GPSVWRPSESLV"
  protein stability index: 0.748
- sequence_chain: "HADFRTLLASRS"
  protein stability index: 0.67
- sequence_chain: "SLDQGSSSLFIM"
  protein stability index: 0.731
- sequence_chain: "DALWLAFFDVID"
  protein stability index: 0.711
- sequence_chain: "SLPLHFISGFYV"
  protein stability index: 0.659
- sequence_chain: "WCGSSGLFLVVW"
  protein stability index: 0.594
- sequence_chain: "FFSRSPVFSFDF"
  protein stability index: 0.822
- sequence_chain: "SLSPWRLPIGGW"
  protein stability index: 0.708
- sequence_chain: "GGGVRWGVGRGG"
  protein stability index: 0.652
- sequence_chain: "LVVSITGRFRRF"
  protein stability index: 0.69
- sequence_chain: "YPTLHEPHSPAL"
  protein stability index: 0.738
- sequence_chain: "LAGGGWGGACGE"
  protein stability index: 0.655
- sequence_chain: "FASFLFFCYIIF"
  protein stability index: 0.197
- sequence_chain: "EFTGVYLWERGW"
  protein stability index: 0.7
- sequence_chain: "RGHPRRRPERKA"
  protein stability index: 0.707
- sequence_chain: "GLGWGGVGVAGV"
  protein stability index: 0.705
- sequence_chain: "PEMCEKRIKTPT"
  protein stability index: 0.634
- sequence_chain: "DWHLLVRRPFSR"
  protein stability index: 0.714
- sequence_chain: "GLSWTVDDGHGG"
  protein stability index: 0.683
- sequence_chain: "FFPFSLFPLPPS"
  protein stability index: 0.744
- sequence_chain: "KKNEEKRRGEGK"
  protein stability index: 0.67
- sequence_chain: "PPIWYAKHRPAP"
  protein stability index: 0.69
- sequence_chain: "SLPIFSGVASVR"
  protein stability index: 0.694
- sequence_chain: "LGLQHPSAWLFP"
  protein stability index: 0.678
- sequence_chain: "WMDNTKKGNKDS"
  protein stability index: 0.736
- sequence_chain: "SFHTFFCPFFIL"
  protein stability index: 0.205
- sequence_chain: "TSDPFGRPPETN"
  protein stability index: 0.643
- sequence_chain: "ELEGKIMNITVW"
  protein stability index: 0.661
- sequence_chain: "LKKEKDHKNRNR"
  protein stability index: 0.67
- sequence_chain: "RPSHSRPITLPT"
  protein stability index: 0.707
- sequence_chain: "CVIGDKRRSKAI"
  protein stability index: 0.681
- sequence_chain: "VPRMLSTPKAQP"
  protein stability index: 0.723
- sequence_chain: "GAGRGLRQGSGG"
  protein stability index: 0.666
- sequence_chain: "VWRGVWQVVVGG"
  protein stability index: 0.523
- sequence_chain: "RRVCLIASLWGC"
  protein stability index: 0.625

###

- Test system: Saccharomyces cerevisiae
- measurement_description: protein stability index of tFT-peptide fusion in wild type (PSI (0-1 scale)); higher = more stable (slower turnover)
- condition_context: genetic background: wild type
Recorded protein stability index for the following sequences

- sequence_chain: "RSLRVLLCLYFR"
  protein stability index: 0.306
- sequence_chain: "CLIQPLPVQFLN"
  protein stability index: 0.103
- sequence_chain: "PSLAASFWEVVG"
  protein stability index: 0.697
- sequence_chain: "NLYMCSVGCWFR"
  protein stability index: 0.414
- sequence_chain: "CLVSLPILLFPR"
  protein stability index: 0.628
- sequence_chain: "VRAAVGGWRLVG"
  protein stability index: 0.14
- sequence_chain: "KKHKKGWKQKIN"
  protein stability index: 0.0739

###

Recorded protein stability index for the following sequences
- System: Saccharomyces cerevisiae
- measurement_description: protein stability index of tFT-peptide fusion (C-terminal peptide) (PSI (0-1 scale)); higher = more stable (slower turnover)
- condition_context: genetic background: wild type; temperature: 30 C
endpoint_label: protein stability index

- sequence_chain: "GTYPGAGWRYEW"
  experimental_value: 0.694
- sequence_chain: "PLWAVRPLLPPE"
  experimental_value: 0.677
- sequence_chain: "ERKHIISKGMNN"
  experimental_value: 0.608
- sequence_chain: "ENQGEKQKKKKR"
  experimental_value: 0.685
- sequence_chain: "GQCHYSSFPVRQ"
  experimental_value: 0.732

###

- Tested on: Saccharomyces cerevisiae
- measurement_description: protein stability index of tFT-peptide fusion (C-terminal peptide) (PSI (0-1 scale)); higher = more stable (slower turnover)
- condition_context: genetic background: wild type; temperature: 30 C
The threshold is inclusive: protein stability index of exactly 0.7 counts as yes; values below receive no.

- sequence_chain: "LAISTIQMFKRI"
  label_class: "no"
- sequence_chain: "FPCVAVFVESNR"
  label_class: "no"
- sequence_chain: "RPNTFRTRAKAL"
  label_class: "no"
- sequence_chain: "LIFFFCSWVFRF"
  label_class: "no"
- sequence_chain: "SPRLPPSPPPDL"
  label_class: "no"
- sequence_chain: "PTSPHPPPCSPP"
  label_class: "yes"
- sequence_chain: "VGAYSVVYVVFS"
  label_class: "no"
- sequence_chain: "PVSCMAWGRLVL"
  label_class: "no"
- sequence_chain: "PASPLFAPSVVP"
  label_class: "yes"
- sequence_chain: "GIISLTPRGCTR"
  label_class: "yes"
- sequence_chain: "HIIRGDCVGVLG"
  label_class: "no"
- sequence_chain: "AAPKSGARASLW"
  label_class: "yes"
- sequence_chain: "FLLCLWIFFFGS"
  label_class: "no"
- sequence_chain: "PLRFSSFSFPGW"
  label_class: "yes"

###

- Test system: Saccharomyces cerevisiae
- measurement_description: protein stability index of tFT-peptide fusion (C-terminal peptide) (PSI (0-1 scale)); higher = more stable (slower turnover)
- condition_context: genetic background: wild type; temperature: 30 C
The threshold is inclusive: protein stability index of exactly 0.7 counts as MET; values below receive NOT MET.

- sequence_chain: "VFWVLVSFLFYV"
  label_class: "NOT MET"
- sequence_chain: "RLVIFITRYLIS"
  label_class: "NOT MET"
- sequence_chain: "HCSWRSLMTLAG"
  label_class: "NOT MET"
- sequence_chain: "KDLFDLYLKRLL"
  label_class: "NOT MET"
- sequence_chain: "GPSATPPGPGLR"
  label_class: "MET"
- sequence_chain: "GWTGEVGVAAGA"
  label_class: "NOT MET"
- sequence_chain: "ALALCLVFFFSI"
  label_class: "NOT MET"
- sequence_chain: "QKQINQKKRTMK"
  label_class: "NOT MET"
- sequence_chain: "PSLPPPSPSPPP"
  label_class: "NOT MET"
- sequence_chain: "SPFLSLPHPSFP"
  label_class: "NOT MET"
- sequence_chain: "TQRLPTPPSIPL"
  label_class: "NOT MET"
- sequence_chain: "TAPSGIYFSLPL"
  label_class: "NOT MET"
- sequence_chain: "KLKTKQNKERNK"
  label_class: "MET"
- sequence_chain: "VRGTGRQLNKSM"
  label_class: "NOT MET"
- sequence_chain: "FCGDDVCLTHFG"
  label_class: "MET"
- sequence_chain: "KWMKKIKTRRQI"
  label_class: "NOT MET"
- sequence_chain: "MLVLFCLCYILG"
  label_class: "NOT MET"
- sequence_chain: "PLPTPTPPPPAP"
  label_class: "MET"
- sequence_chain: "LADFMFCALPLC"
  label_class: "NOT MET"
- sequence_chain: "WCCCVSGFVWWM"
  label_class: "NOT MET"
- sequence_chain: "RPPPPSPAPTPP"
  label_class: "MET"
- sequence_chain: "LPAPARPPLVCS"
  label_class: "NOT MET"
- sequence_chain: "VVRVIWCQFSCF"
  label_class: "NOT MET"
- sequence_chain: "NYHAIANRILAK"
  label_class: "NOT MET"
- sequence_chain: "TVYMVIRVIVWG"
  label_class: "NOT MET"
- sequence_chain: "FFVYRFFSLSVC"
  label_class: "NOT MET"
- sequence_chain: "RHLRSGTRAKVY"
  label_class: "NOT MET"
- sequence_chain: "VGFFLGVLLSLL"
  label_class: "NOT MET"
- sequence_chain: "TQPDLAPPLPRS"
  label_class: "NOT MET"
- sequence_chain: "NCGGQGKEDGCK"
  label_class: "NOT MET"
- sequence_chain: "WEWGCRVEELSG"
  label_class: "MET"
- sequence_chain: "KLLDHFVKIRVY"
  label_class: "NOT MET"
- sequence_chain: "VGKTVKQLSLIS"
  label_class: "NOT MET"
- sequence_chain: "PSVPRLPGLSLR"
  label_class: "NOT MET"
- sequence_chain: "AVLFDQLGGRWR"
  label_class: "NOT MET"
- sequence_chain: "FLLFIRGFSGCR"
  label_class: "NOT MET"
- sequence_chain: "ADVWSCAFCFDC"
  label_class: "NOT MET"
- sequence_chain: "CRRLCGWLFVCV"
  label_class: "NOT MET"
- sequence_chain: "LYSSPSLQSPNP"
  label_class: "NOT MET"
- sequence_chain: "GLGGRFSWVDGV"
  label_class: "MET"
- sequence_chain: "NRTGVRIEIKGR"
  label_class: "NOT MET"
- sequence_chain: "KIRRIHRNVVKG"
  label_class: "MET"
- sequence_chain: "GGVGVYSVMVGG"
  label_class: "NOT MET"
- sequence_chain: "GRWEGLRGLGVG"
  label_class: "NOT MET"

Ref: the supplement of paper PMC10724198
